# System Name: T1, monomeric hIL-4R (R&D Systems) (human, UniProt P24394 26-231)
# T1 construct: Bought (R&D Systems); also called hIL-4R monomer
# T1 sequence: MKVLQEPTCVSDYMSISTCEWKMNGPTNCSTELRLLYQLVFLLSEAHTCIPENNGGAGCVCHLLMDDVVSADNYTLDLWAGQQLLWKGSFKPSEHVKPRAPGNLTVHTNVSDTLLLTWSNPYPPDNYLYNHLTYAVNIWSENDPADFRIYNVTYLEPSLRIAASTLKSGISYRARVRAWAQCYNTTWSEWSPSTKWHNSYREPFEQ
# Assay: SPR (BIAcore 2000); antibody captured, monomeric hIL-4R injected
Quantity Measured: pKd
Numbers only, as −log10 of the molar value.

Here's what some known entries look like.
VAB 11G8-1 (antibody, V domains shown, Apparently tested with mouse constant region (anti-mouse IgG capture/detection)) VH: QVQLVQSGAEVKKPGASVKVSCKASGYTFTNYGISWVRQAPGQGLEWMGWISVYNGHTNYAQKLQGRVTMTTDTSTSTAYMELRSLRSDDTAVYYCARGSGYDFDSWGQGTLVTVSS VL: AIQMTQSSSSLSASVGDRVTITCRASQAIRNALGWYQQKPGKAPKVLIYAASSLQSGIPSRFSGSGSGTDFTLTISSLQPEDFATYYCLQDYDYPYTFGQGTKLEIK; 8.79
VAB 4D5-3 (antibody, V domains shown, Apparently tested with mouse constant region (anti-mouse IgG capture/detection)) VH: QVQLVQSGPEVKKPGASVKVSCKASGYTFTNYGISWVRQAPGQGLEWMGWISVYNGKTNYAQKFQGRVTMTTDTSTSTAYMDLRSLRSDDTAVYYCARGSGYDFDYWGQGTLVTVSS VL: AIQMTQSPSSLSASVGDRVTITCRASQGIRNALGWYQQKPGKAPKLLIFASSSLQSGVPSRFSGSGSGTDFTLTIRSLQPEDFAAYYCLQDYNYPYTFGQGTKLEIK; 8.69

Provide reported pKd for each item, in the same order as listed.
1. VAB 10G8-19 (antibody, V domains shown, Apparently tested with mouse constant region (anti-mouse IgG capture/detection)) VH: QVQLVQSGAEVKKPGASVKVSCKASRYTFTSYDINWVRQATGQGLEWMGWMNPNSGNTGYAQKFQGRVTMTRNTSTSTAYMELSSLRSEDTAVYYCARVRRFFDYWGQGTLVTVSS VL: DIQLTQSPSFLSASVGDRVTITCWASQGIISYLAWYQQKPGKAPKLLIYAASTLHSGVPSRFSGSGSGTEFTLTISSLQPEDFATYYCHQLKSYPITFGQGTRLEIK
2. VAB 10C1-5 (antibody, V domains shown, Apparently tested with mouse constant region (anti-mouse IgG capture/detection)) VH: QVQLVETGGDLVRPGGSLRLSCTASGFTLSDYYMSWIRQAPGKGLEWVSYIRRSGNTIYYADSVKGRFTISRDNAKNSLYLQMNSLRAEDTAVYYCARGGDWADVWGQGTTVTVSS VL: DIQMTQSPSSLSASVGDRVTITCRASQGISIYLAWFQQKPGKAPKSLIYAASSLQRGVPSKFSGSGSGTDFTLTISSLQPEDFATYYCQQYNSYPYTFGQGTKLEIK

A)
7.94
8.35
